Tested on: Acinetobacter baumannii strains
protocolDescription: Antibiotic susceptibility test (CLSI disk diffusion test method, read per CLSI 2016)
Type: cell-based
studyConditions: host strain YMC16/05/R2210
measurementName: antibiotic susceptibility S/I/R

>>> df
                                   molecule                  targetundertest                  measurementname  result
0  C[C@H]1COc2c(N3CCN(C)CC3)c(F)cc3c(=O)c(C(=O)O)cn1c23  Acinetobacter baumannii strains  antibiotic susceptibility S/I/R       R
1  CN(C)c1cc(NC(=O)CNC(C)(C)C)c(O)c2c1C[C@H]1C[C@H]3[C@H](N(C)C)C(O)=C(C(N)=O)C(=O)[C@@]3(O)C(O)=C1C2=O  Acinetobacter baumannii strains  antibiotic susceptibility S/I/R       S
2  CO/N=C(\C(=O)N[C@@H]1C(=O)N2C(C(=O)O)=C(COC(C)=O)CS[C@H]12)c1csc(N)n1  Acinetobacter baumannii strains  antibiotic susceptibility S/I/R       R

* * *

Test system: Acinetobacter baumannii strains
protocolDescription: Antibiotic susceptibility test (CLSI disk diffusion test method, read per CLSI 2016)
Format: cell-based
studyConditions: host strain YMC16/01/R353
Description: Strain identification was performed using a kit such as AT 32 GN system (bioMérieux, Marcy l'Etoile, France). […] In Table 2 below, S, I, and R are the results obtained by evaluating susceptibility to the antibacterial agents, in which ‘S’ means susceptible, ‘I’ means intermediate, and ‘R’ means resistant. Strain identification was performed using a kit such as ATB 32 GN system (bioMédrieux, Marcy l'Etoile, France). […]

molecule	antibiotic susceptibility S/I/R
NCC[C@H](O)C(=O)N[C@@H]1C[C@H](N)[C@@H](O[C@H]2O[C@H](CN)[C@@H](O)[C@H](O)[C@H]2O)[C@H](O)[C@H]1O[C@H]1O[C@H](CO)[C@@H](O)[C@H](N)[C@H]1O	R
CCN1CCN(C(=O)N[C@@H](C(=O)N[C@@H]2C(=O)N3[C@@H]2SC(C)(C)[C@@H]3C(=O)O)c2ccccc2)C(=O)C1=O	R
C[C@@H](O)[C@H]1C(=O)N2C(C(=O)O)=C(SCCN=CN)C[C@H]12	R
C[C@@H](O)[C@H]1C(=O)N2C(C(=O)O)=C(S[C@@H]3CN[C@H](C(=O)N(C)C)C3)[C@H](C)[C@H]12	R
CN(C)c1cc(NC(=O)CNC(C)(C)C)c(O)c2c1C[C@H]1C[C@H]3[C@H](N(C)C)C(O)=C(C(N)=O)C(=O)[C@@]3(O)C(O)=C1C2=O	S
CC(C)(O/N=C(\C(=O)N[C@@H]1C(=O)N2C(C(=O)[O-])=C(C[n+]3ccccc3)CS[C@H]12)c1csc(N)n1)C(=O)O	R
CN(C)c1ccc(O)c2c1C[C@H]1C[C@H]3[C@H](N(C)C)C(O)=C(C(N)=O)C(=O)[C@@]3(O)C(O)=C1C2=O	S
CO/N=C(\C(=O)N[C@@H]1C(=O)N2C(C(=O)O)=C(COC(C)=O)CS[C@H]12)c1csc(N)n1	R
C[C@H]1COc2c(N3CCN(C)CC3)c(F)cc3c(=O)c(C(=O)O)cn1c23	R

* * *

Tested on: Acinetobacter baumannii strains
protocolDescription: Antibiotic susceptibility test (CLSI disk diffusion test method, read per CLSI 2016)
Format: cell-based
studyConditions: host strain YMC15/02/T28
measurementName: susceptibility category (S/I/R)

In [3]: df
Out[3]:
                                   molecule                  measurementname  result
0  CN(C)c1cc(NC(=O)CNC(C)(C)C)c(O)c2c1C[C@H]1C[C@H]3[C@H](N(C)C)C(O)=C(C(N)=O)C(=O)[C@@]3(O)C(O)=C1C2=O  susceptibility category (S/I/R)       S
1  CCN1CCN(C(=O)N[C@@H](C(=O)N[C@@H]2C(=O)N3[C@@H]2SC(C)(C)[C@@H]3C(=O)O)c2ccccc2)C(=O)C1=O  susceptibility category (S/I/R)       R
2  C[C@@H](O)[C@H]1C(=O)N2C(C(=O)O)=C(SCCN=CN)C[C@H]12  susceptibility category (S/I/R)       R

* * *

Tested on: Acinetobacter baumannii strains
protocolDescription: Antibiotic susceptibility test (CLSI disk diffusion test method, read per CLSI 2016)
Format: cell-based
studyConditions: host strain YMC17/01/B10087
Procedure: Strain identification was performed using a kit such as AT 32 GN system (bioMérieux, Marcy l'Etoile, France). […] In Table 2 below, S, I, and R are the results obtained by evaluating susceptibility to the antibacterial agents, in which ‘S’ means susceptible, ‘I’ means intermediate, and ‘R’ means resistant. Strain identification was performed using a kit such as ATB 32 GN system (bioMédrieux, Marcy l'Etoile, France). […]
measurementName: susceptibility category (S/I/R)

>>> print(df.to_string())
                                   molecule  result
0  CN(C)c1ccc(O)c2c1C[C@H]1C[C@H]3[C@H](N(C)C)C(O)=C(C(N)=O)C(=O)[C@@]3(O)C(O)=C1C2=O       S
1  CCN1CCN(C(=O)N[C@@H](C(=O)N[C@@H]2C(=O)N3[C@@H]2SC(C)(C)[C@@H]3C(=O)O)c2ccccc2)C(=O)C1=O       R
2  CC(C)(O/N=C(\C(=O)N[C@@H]1C(=O)N2C(C(=O)[O-])=C(C[n+]3ccccc3)CS[C@H]12)c1csc(N)n1)C(=O)O       R

* * *

Test system: Acinetobacter baumannii strains
protocolDescription: Antibiotic susceptibility test (CLSI disk diffusion test method, read per CLSI 2016)
Assay type: cell-based
studyConditions: host strain YMC17/01/B10087
Description: Strain identification was performed using a kit such as AT 32 GN system (bioMérieux, Marcy l'Etoile, France). […] In Table 2 below, S, I, and R are the results obtained by evaluating susceptibility to the antibacterial agents, in which ‘S’ means susceptible, ‘I’ means intermediate, and ‘R’ means resistant. Strain identification was performed using a kit such as ATB 32 GN system (bioMédrieux, Marcy l'Etoile, France). […]
measurementName: antibiotic susceptibility S/I/R

molecule	targetUnderTest	measurementName	result
NCC[C@H](O)C(=O)N[C@@H]1C[C@H](N)[C@@H](O[C@H]2O[C@H](CN)[C@@H](O)[C@H](O)[C@H]2O)[C@H](O)[C@H]1O[C@H]1O[C@H](CO)[C@@H](O)[C@H](N)[C@H]1O	Acinetobacter baumannii strains	antibiotic susceptibility S/I/R	R
CC(C)(O/N=C(\C(=O)N[C@@H]1C(=O)N2C(C(=O)[O-])=C(C[n+]3ccccc3)CS[C@H]12)c1csc(N)n1)C(=O)O	Acinetobacter baumannii strains	antibiotic susceptibility S/I/R	R
C[C@H]1COc2c(N3CCN(C)CC3)c(F)cc3c(=O)c(C(=O)O)cn1c23	Acinetobacter baumannii strains	antibiotic susceptibility S/I/R	R

* * *

System: Acinetobacter baumannii strains
protocolDescription: Antibiotic susceptibility test (CLSI disk diffusion test method, read per CLSI 2016)
Format: cell-based
studyConditions: host strain YMC17/01/B12075
measurementName: susceptibility category (S/I/R)

molecule	measurementName	result
C[C@H]1COc2c(N3CCN(C)CC3)c(F)cc3c(=O)c(C(=O)O)cn1c23	susceptibility category (S/I/R)	R
C[C@@H](O)[C@H]1C(=O)N2C(C(=O)O)=C(SCCN=CN)C[C@H]12	susceptibility category (S/I/R)	R
CCN1CCN(C(=O)N[C@@H](C(=O)N[C@@H]2C(=O)N3[C@@H]2SC(C)(C)[C@@H]3C(=O)O)c2ccccc2)C(=O)C1=O	susceptibility category (S/I/R)	R
C[C@@H](O)[C@H]1C(=O)N2C(C(=O)O)=C(S[C@@H]3CN[C@H](C(=O)N(C)C)C3)[C@H](C)[C@H]12	susceptibility category (S/I/R)	R
CO/N=C(\C(=O)N[C@@H]1C(=O)N2C(C(=O)O)=C(COC(C)=O)CS[C@H]12)c1csc(N)n1	susceptibility category (S/I/R)	R
NCC[C@H](O)C(=O)N[C@@H]1C[C@H](N)[C@@H](O[C@H]2O[C@H](CN)[C@@H](O)[C@H](O)[C@H]2O)[C@H](O)[C@H]1O[C@H]1O[C@H](CO)[C@@H](O)[C@H](N)[C@H]1O	susceptibility category (S/I/R)	S

* * *

System: Acinetobacter baumannii strains
protocolDescription: Antibiotic susceptibility test (CLSI disk diffusion test method, read per CLSI 2016)
Format: cell-based
studyConditions: host strain YMC17/03/R348

molecule	susceptibility category (S/I/R)
CC(C)(O/N=C(\C(=O)N[C@@H]1C(=O)N2C(C(=O)[O-])=C(C[n+]3ccccc3)CS[C@H]12)c1csc(N)n1)C(=O)O	R
CN(C)c1cc(NC(=O)CNC(C)(C)C)c(O)c2c1C[C@H]1C[C@H]3[C@H](N(C)C)C(O)=C(C(N)=O)C(=O)[C@@]3(O)C(O)=C1C2=O	S
CCN1CCN(C(=O)N[C@@H](C(=O)N[C@@H]2C(=O)N3[C@@H]2SC(C)(C)[C@@H]3C(=O)O)c2ccccc2)C(=O)C1=O	R
C[C@H]1COc2c(N3CCN(C)CC3)c(F)cc3c(=O)c(C(=O)O)cn1c23	R
C[C@@H](O)[C@H]1C(=O)N2C(C(=O)O)=C(SCCN=CN)C[C@H]12	R
NCC[C@H](O)C(=O)N[C@@H]1C[C@H](N)[C@@H](O[C@H]2O[C@H](CN)[C@@H](O)[C@H](O)[C@H]2O)[C@H](O)[C@H]1O[C@H]1O[C@H](CO)[C@@H](O)[C@H](N)[C@H]1O	R
